- assayTarget: T1, PDZD7 PDZ12 M285R (UniProt E9Q9W7 84-289, M285R)
- T1 sequence: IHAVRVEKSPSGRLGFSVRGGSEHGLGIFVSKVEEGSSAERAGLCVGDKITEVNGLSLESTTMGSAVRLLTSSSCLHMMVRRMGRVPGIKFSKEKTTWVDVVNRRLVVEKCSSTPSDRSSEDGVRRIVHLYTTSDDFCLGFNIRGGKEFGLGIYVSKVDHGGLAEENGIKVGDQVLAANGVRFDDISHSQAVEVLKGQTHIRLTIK
- runDescription: ITC
pKd: −log10 of the molar value.
parameterMeasured: pKd

binder: GHSSGLYVDEEELMNAIKGFSSVTKEHTAFTDTHL (domain or fragment) [USH2A-CT (Short, S)]
parameterMeasured: pKd
measured: 5.07
